# Test system: IFN-γ
# Protocol details: IFN-γ production in PBMC (ELISA)
# Type: cell-based
# Stated conditions: Homo sapiens, activator mab anti-CD3, 48 h, read-out: IFN-γ T-cell IC50
Observed property: IC50

Solved entries (count: 5):
>>> observed_value("CCOc1cc(C2=NN(C(=O)c3ccc(NC(=O)c4cccnc4)cc3)CCC2)ccc1OC")
"7 nM"
>>> observed_value("CCOc1cc(C2=NN(C(=O)c3ccc(NC(=O)c4ccc(OC)cc4)cc3)CCC2)ccc1OC")
"5 nM"
>>> observed_value("CCOC(=O)Nc1ccc(C(=O)N2CCCC(c3ccc(OC)c(OCC)c3)=N2)cc1")
"8 nM"
>>> observed_value("CCOC(=O)Nc1ccc(CN2N=C(c3ccc(OC)c(OCC)c3)CCC2=O)cc1")
"50 nM"
>>> observed_value("CCOc1cc(C2=NN(Cc3ccc(NC(=O)c4cccnc4)cc3)C(=O)SC2)ccc1OC")
"10 nM"

We now examine a further compound.
[ask] Any idea what IC50 was measured for COc1ccc(C2CNC(=O)C2)cc1OC1CCCC1 (stereo not drawn) [Rolipram, reference compound] ?
[reply] 1000 nM

---

# System: T cells within the PBMC preparation
# Protocol details: Effect of PDE4 inhibitors on T-cell proliferation (3H-thymidine incorporation, anti-CD3 stimulated PBMC)
# Format: cell-based
# Stated conditions: Homo sapiens, 120 h, monoclonal antibody to CD3, 5 days, read-out: T-cell prol. IC50
# Description: Peripheral blood mononuclear cells (PBMC) were isolated from the blood of healthy donors by the Lymphoprep gradient method. […] The incorporation of radioactivity into the cells was then measured in a beta-counter. The data of at least three independent experiments were calculated as percent inhibition of the control (mean ±SEM) without inhibitor.
Observed property: pIC50
The quantity pIC50 is defined as the negative base-10 logarithm of the molar concentration.

Solved entries (count: 3):
>>> observed_value("CCOc1cc(C2=NN(C(=O)c3ccc(NC(=O)c4cccnc4)cc3)CCC2)ccc1OC [EMD 125025]")
8.22
>>> observed_value("CCOC(=O)Nc1ccc(C(=O)N2CCCC(c3ccc(OC)c(OCC)c3)=N2)cc1 [EMD 125059]")
7.40
>>> observed_value("CCOC(=O)Nc1ccc(CN2N=C(c3ccc(OC)c(OCC)c3)CCC2=O)cc1 [EMD 94360]")
7.70

[ask] Any idea what pIC50 was measured for CCOc1cc(C2=NN(Cc3ccc(NC(=O)c4cccnc4)cc3)C(=O)SC2)ccc1OC [EMD 95832] ?
[reply] 7.30

[ask] Any idea what pIC50 was measured for CCOc1cc(C2=NN(C(=O)c3ccc(NC(=O)c4ccc(OC)cc4)cc3)CCC2)ccc1OC [EMD 219901] ?
[reply] 8.15

[ask] Any idea what pIC50 was measured for COc1ccc(C2CNC(=O)C2)cc1OC1CCCC1 (stereo not drawn) [Rolipram, reference compound] ?
[reply] 6.52

From: patent US20050070529A1
